protocolDescription: Inhibition of IL-5 receptor in mouse pro-B Y16 cells assessed as decrease in mIL-5 dependent cell proliferation after 48 hrs in presence of 3 units/ml mIL-5 by WST-1 assay
pIC50: −log10 of the molar value.
measurementKind: pIC50

OCCN(Cc1ccccc1)Cc1nc2c(OCC3CCCCC3)cccc2[nH]1    4.60
OCCNCc1nc2c(OCC3CCCCC3)cccc2[nH]1    4.70
CCCN(CCO)Cc1nc2c(OCC3CCCCC3)cccc2[nH]1    4.70
OCCN(Cc1ccc(Cl)cc1)Cc1nc2c(OCC3CCCCC3)cccc2[nH]1    4.89
OCC(CC1CCCCC1)NCc1nc2c(OCC3CCCCC3)cccc2[nH]1 (configuration not stated)    5.30
O=c1c(-c2ccc(O[C@@H]3O[C@H](CO)[C@@H](O)[C@H](O)[C@H]3O)cc2)coc2cc(O)cc(O)c12 [Sophoricoside]    4.97
CCC(CO)NCc1nc2c(OCC3CCCCC3)cccc2[nH]1 (configuration not stated)    5.46
CC(C)(CO)NCc1nc2c(OCC3CCCCC3)cccc2[nH]1    4.56
OCCN(Cc1nc2c(OCC3CCCCC3)cccc2[nH]1)CC1CCCCC1    4.68
OCCCCNCc1nc2c(OCC3CCCCC3)cccc2[nH]1    4.52
OCC(Cc1ccccc1)NCc1nc2c(OCC3CCCCC3)cccc2[nH]1 (configuration not stated)    4.92

###

protocolDescription: Inhibition of IL-5 receptor in mouse pro-B Y16 cells assessed as decrease in mIL-5 dependent cell proliferation after 48 hrs in presence of 3 units/ml mIL-5 by WST-1 assay
measurementKind: IC50 (µM)

CCCC1O[C@@H]2C[C@H]3[C@@H]4CCC5=CC(=O)C=C[C@]5(C)[C@H]4[C@@H](O)C[C@]3(C)[C@]2(C(=O)CO)O1 (stereo not given in full) [BUDESONIDE]    26.2
OCCCNCc1nc2c(OCC3CCCCC3)cccc2[nH]1    28.5
CCCC(CO)NCc1nc2c(OCC3CCCCC3)cccc2[nH]1 (stereo not given)    7.5
COc1ccc(CN(CCO)Cc2nc3c(OCC4CCCCC4)cccc3[nH]2)cc1    19
OCC(NCc1nc2c(OCC3CCCCC3)cccc2[nH]1)c1ccccc1 (stereo not given)    20
OCCC(NCc1nc2c(OCC3CCCCC3)cccc2[nH]1)c1ccccc1 (stereo not given)    22
